Test system: LOX IMVI melanoma
Assay: NCI tumour cell line growth inhibition, 48 h
Property: GI50

> print(dat)
                                   compound  property   reading
1  CCN1C(=O)N(CC)C2C1NN=c1s/c(=C\c3cccc([N+](=O)[O-])c3)c(=O)n12 (stereo not given)      GI50   56.8 nM
2  CC(=O)c1cccc(NC(=O)c2ccc(NC3=C(Cl)C(=O)N(Cc4ccccc4)C3=O)cc2)c1      GI50  13900 nM
3  CCc1c(C)c2ccc(OCC(=O)N=Nc3c(O)[nH]c4ccccc34)c(C)c2oc1=O      GI50    832 nM
4  O=C(COc1ccc(-c2nc3cc(Cl)c(Cl)cc3[nH]2)cc1)N=Nc1c(O)[nH]c2ccccc12      GI50   1020 nM
5  Oc1c(CNCCNCc2cc(Cl)cc(Cc3ccccc3)c2O)cc(Cl)cc1Cc1ccccc1      GI50    136 nM

* * *

Listed here are compounds together with their documented TGI.
Test system: A549 NSCLC
Test: NCI tumour cell line growth inhibition, 48 h
Property: TGI

> print(dat)
                                   compound  target.under.test  property   reading
1  COc1ccc2c(c1)CCN1C3=C(CCC3)C(=O)C[C@@H]21         A549 NSCLC       TGI  > 100 µM
2   Cc1c(-c2ccc(O)c(O)c2)oc(=O)c2c(O)cccc12         A549 NSCLC       TGI  > 100 µM
3  O=C1CSC(C(N=Nc2ccc(Cl)cc2)c2nc3ccccc3[nH]2)=N1 (centres undefined)         A549 NSCLC       TGI  > 100 µM
4  CCN(CC)CCNC(=O)c1nn(-c2ccc(Cl)cc2)c2c1CCc1cc(OC)ccc1-2         A549 NSCLC       TGI   21.3 µM
5  C[n+]1c(/C=C/c2ccc(/C=N/NC(=O)c3ccc(C(=O)N/N=C/c4ccc(/C=C/c5cn6ccccc6[n+]5C)cc4)cc3)cc2)cn2ccccc21         A549 NSCLC       TGI  > 100 µM
6  CC(C)(C)OC(=O)NCCCCCCCCCCn1c2c(c3ccccc3c1=O)C(=O)c1ccccc1-2         A549 NSCLC       TGI  > 100 µM
7  Cc1nn(-c2ccccc2)c2nc3ccc(Cl)cc3c(-c3ccccc3)c12         A549 NSCLC       TGI  > 100 µM
8  C[C@]12CC[C@@H]3c4ccc(O)cc4CC[C@H]3[C@@H]1CC[C@@H]2NS(=O)(=O)c1ccc2ccccc2c1         A549 NSCLC       TGI   13.2 µM
9        CC(=O)OC(=C(C#N)C#N)c1nccnc1C(C)=O         A549 NSCLC       TGI   > 20 µM

* * *

System: NCI-H226 lung
Assay: NCI tumour cell line growth inhibition, 48 h
Property: TGI

> print(dat)
                                    compound   reading
 1           Nc1c2c(nc3ccccc13)CCCc1ccccc1-2   45.4 µM
 2  NC(=O)C1CCCN1C(=O)N(CCCl)N=O (stereo not drawn)  > 100 µM
 3  NC(=O)C1N=NSC1NC(=O)c1ccc([N+](=O)[O-])cc1 (stereo not drawn)  > 100 µM
 4  Cc1cc(=O)c2ccccc2n1CCCCCCCCCCn1c(C)cc(=O)c2ccccc21   46.1 µM
 5          COc1ccc(N(C(=O)NCCO)c2ccccc2)cc1  > 100 µM
 6                          COC1=CC(=O)NCCN1  > 100 µM
 7  C[N+](C)(C)C(C1=CCCC1=O)c1ccccc1 (stereo not drawn)  > 100 µM
 8        CCN(Cc1cccc(F)c1F)c1ccc(CO)c(Cl)c1  0.141 µM
 9       Cc1cc(C)c(C(=O)/C=C/c2ccccc2)c(C)c1   43.1 µM
10  CC(=O)OC1OC(c2ccoc2)C[C@@]12C1CCC3O[C@]3(C)[C@]1(C)C[C@H](OC(C)=O)[C@H]2C (stereo partly drawn)   > 75 µM
11               COc1cc2ccc(CC(N)=O)cc2cc1OC  > 100 µM
12    COc1cc(Nc2nc3ccccc3nc2C(C)C)cc(OC)c1OC  > 100 µM
13  CC12CCC(O)CC1=CCC1C2CCC2(C)C(c3cccnc3)=CCC12 (stereo not drawn)  > 100 µM
14  COc1ccc2c(c1)CCN1C3=C(CCC3)C(=O)C[C@@H]21  > 100 µM
15  COc1ccc(Oc2cc(NCCC(F)(F)F)c3ncc(-c4ccc(C(=O)NC5CC5)c(C)c4)n3n2)c(F)c1F   68.8 µM
16  CN(C)c1ccc(C(=C2C=CC(=[N+](C)C)C=C2)c2ccccc2Cl)cc1      2 µM
17  C[C@]12CC[C@@H]3c4ccc(O)cc4CC[C@H]3[C@@H]1CC[C@@H]2NS(=O)(=O)c1ccc2ccccc2c1   11.5 µM
18  COc1cc2c(cc1OC)[C@@H]([C@H](O)c1ccccc1)NCC2  > 100 µM
19  COc1cc(C(=O)OCCn2[nH]c(-c3ccc(Cl)cc3)nc2=S)cc(OC)c1OC  > 100 µM
20  O=S(=O)(O)c1ccccc1N=Nc1ccc(N=Nc2c(O)ccc3ccccc23)c(S(=O)(=O)O)c1  > 100 µM
21  O=C1CCCC[C@H]1C(O)CC1CC(=O)N(c2ccccc2)C(=O)C1 (stereo partly drawn)  > 100 µM
22  CC(C)(C)OC(=O)NCCCCCCCCCCn1c2c(c3ccccc3c1=O)C(=O)c1ccccc1-2  > 100 µM
23  COc1ccc(/C=C(/c2ccccc2)c2c(C)cc(C)c(/C(=C\c3ccc(OC)cc3)c3ccccc3)c2N=Nc2cc(C)cc(C)c2)cc1  > 100 µM

* * *

Tested on: SR leukemia
Assay: NCI tumour cell line growth inhibition, 48 h; in the data active = GI50 below about 0.43 µM; inactive = the rest
Outcome codes: T (active), F (inactive)

Compound	Group
CCOC(=O)c1nc2cc(C(F)(F)F)ccc2[n+]([O-])c1C	F
O=C1N[C@H]2[C@H](O)[C@H](O)[C@@H](O)[C@H](O)[C@@H]2c2cc3c(c(O)c21)OCO3	T
CC1(C)CC(=O)c2c(ccc(C(=O)C[C@@H](N)CO)c2N)O1	T
COc1ccc(-c2nc(-c3nc4ccc(C(F)(F)F)cc4[nH]3)c3ccccn23)cc1	F
Oc1ccccc1C=Nc1ccccc1N=Cc1ccccc1O.[Cu+2]	F
CNC(=O)c1cc2c(Oc3ccc(NC(=S)NC(=O)Cc4ccccc4)cc3F)ccnc2cc1OC	F
C[C@]12CCc3sc(-c4cccc(F)c4)nc3C1=CC[C@@H]1[C@@H]2CC[C@]2(C)C(=O)CC[C@@H]12	F
COC(=O)[C@@H](OC)[C@@H]1Cc2cc3cc(OC4CC(OC5CC(O)C(O)C(C)O5)C(O)C(C)O4)c(C)c(O)c3c(O)c2C(=O)[C@H]1OC1CC(OC2CC(OC3CC(C)(O)C(O)C(C)O3)C(O)C(C)O2)C(O)C(C)O1 (stereo partly drawn)	T

* * *

System: SNB-75 CNS
Experiment: NCI tumour cell line growth inhibition, 48 h
Property: GI50

> print(dat)
                                     smiles  reading
1                  Nc1cc2nc3ccccc3oc-2cc1=O  1820 nM
2                O=Nc1c(O)c2ccccc2c2ccccc12  1510 nM
3  CC(C)(C)OC(=O)NCCCCCCCCCCn1c2c(c3ccccc3c1=O)C(=O)c1ccccc1-2  5920 nM

* * *

Test system: HOP-92 NSCLC
Assay: NCI tumour cell line growth inhibition, 48 h
Listed here are compounds together with their documented TGI.
Property: TGI (µM)

> print(dat)
                                   compound  target.under.test  unit.abbreviation  qualifier.operator  reading
1  C#C/C=C/CC1OC(C(Br)CC)CC(Br)C2CC1O2 (stereo not given)       HOP-92 NSCLC                 µM                   =     58.6
2  O=S(=O)(NCCO)c1cc[c]([Sb](=[O])([OH])[OH])cc1       HOP-92 NSCLC                 µM                   >      100
3  CN1CCN(c2ccc(C(=O)Nc3cccc(C#Cc4cccc5[nH]nc(N)c45)c3)cc2C(F)(F)F)CC1       HOP-92 NSCLC                 µM                   =     4.07
4  O=C(CC1C(=O)Nc2ccccc2S1(=O)=O)Nc1cccc(Cl)c1 (stereo not given)       HOP-92 NSCLC                 µM                   =     32.2
5  CNC(=O)c1cc2c(Oc3ccc(NC(=S)NC(=O)Cc4ccccc4)cc3F)ccnc2cc1OC       HOP-92 NSCLC                 µM                   >      100
